Each record here notes measured cytotoxicity.
Test: viability loss of HPDE-C7K cells – cell-based, fluorescence, HTS, primary screen (AID 431);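 also: 0% = DMSO solvent wells and 100% = doxorubicin-treated wells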
Settings: HPDE-C7K KRASV12 cells, Alamar Blue viability, 48 h; at 10 µM; active compounds read high
The campaign covered roughly 63,000 compounds. About 1,100 (1.7%) were called active. Shown is part of a subset that was picked to be rich in actives. Potency and affinity values are given separately.
Give your result in % as a bare value.

molecule	cytotoxicity / %
CCC(C)(C(=O)NC1CCCCC1)N(CC1CCCO1)C(=O)c1ccccn1 (stereo not drawn)	-5.6
COc1ccccc1OCCNC(=O)c1cccs1	-0.7
O=C(OC(C(=O)NCC1CCCO1)c1ccc(F)cc1)c1ccco1 (stereo not drawn)	-12.4
COc1ccc(-n2nnnc2SCC(=O)c2cccc(OC)c2)cc1	25.7
O=C(CSc1nnc(COc2ccccc2)o1)NCCc1ccccc1	-27.9

Query O=C(CCn1c(=O)c2sccc2n(CC(=O)OCc2ccccc2)c1=O)NCc1ccco1 yields cytotoxicity of -12.9

Query CCS(=O)(=O)c1nnnn1-c1ccccc1S(C)(=O)=O yields cytotoxicity of 36.8

Query COc1ccccc1C(=O)N1CCN(S(=O)(=O)Cc2ccccc2)CC1 yields cytotoxicity of -0.3

Query Cc1c(NC(=O)Nc2ccc(Cl)cc2)c(=O)n(-c2ccccc2)n1C yields cytotoxicity of -17

Query CCOc1cccc(-n2nnnc2-c2ccc(OC)cc2)c1 yields cytotoxicity of 52.1

Query O=C(NCc1ccco1)C(Cc1ccccc1)N1C(=O)c2ccccc2C1=O (stereo not drawn) yields cytotoxicity of -12.8

Query c1ccc(-n2c(-c3ccco3)nnc2N2CCOCC2)cc1 yields cytotoxicity of -4.7

Query COc1ccc(-n2nnnc2-c2cccnc2)cc1 yields cytotoxicity of 0.7

Query CSc1nc(-c2ccco2)cc(-c2ccccc2)c1C#N yields cytotoxicity of 45

Query Cc1ccc2cccc(OC(=O)c3ccc4c(c3)OCCO4)c2n1 yields cytotoxicity of 54.5

Query CN1CCN(c2nc(-c3cccnc3)nc3ccccc23)CC1 yields cytotoxicity of -10.1

====

Assay: viability loss of HPDE-C7K cells – cell-based, fluorescence, HTS, primary screen (AID 431);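 also: 0% = DMSO solvent wells and 100% = doxorubicin-treated wells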
Conditions: HPDE-C7K KRASV12 cells, Alamar Blue viability, 48 h; at 10 µM; active compounds read high
The campaign covered roughly 63,000 compounds. About 1,100 (1.7%) were called active. This excerpt belongs to a sample that is enriched for actives. Entries with a potency or affinity are not part of this list.
readout.kind: cytotoxicity (%)
Give your result in % as a bare value.

molecule	readout.kind	numeric.value
CCCCc1ccc(NC(=O)CSC2=C(C#N)C(c3ccco3)C3=C(CCCC3=O)N2)cc1 (centres undefined)	cytotoxicity	79.6
Cc1ccc(C(=O)CSC2=C(C#N)C(c3ccco3)C3=C(CC(C)(C)CC3=O)N2)cc1 (centres undefined)	cytotoxicity	18.2
N#CC1=C(SCC(=O)c2ccccc2)NC2=C(C(=O)CCC2)C1c1ccco1 (centres undefined)	cytotoxicity	41.2
CC1(C)CC(=O)C2=C(C1)NC(SCC(=O)Nc1ccccc1)=C(C#N)C2c1ccco1 (centres undefined)	cytotoxicity	-6.1

Query Cc1ccc(NC(=O)CSC2=C(C#N)C(c3ccco3)C3=C(CC(C)(C)CC3=O)N2)cc1 (centres undefined) yields cytotoxicity of 54.3

Query CCc1ccc2[nH]c(=O)c(CN(CCO)C(=O)NCc3ccccc3)cc2c1 yields cytotoxicity of -4.1

Query Cc1ccc(NC(=O)CSC2=C(C#N)C(c3ccco3)C3=C(CCCC3=O)N2)cc1 (centres undefined) yields cytotoxicity of 2.1

Query COc1cccc(NC(=O)CSC2=C(C#N)C(c3ccco3)C3=C(CCCC3=O)N2)c1 (centres undefined) yields cytotoxicity of 15.3

Query Cc1ccc(C(=O)CSC2=C(C#N)C(c3ccco3)C3=C(CCCC3=O)N2)cc1 (centres undefined) yields cytotoxicity of 77.3

====

Assay: viability loss of HPDE-C7K cells – cell-based, fluorescence, HTS, primary screen (AID 431);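 also: 0% = DMSO solvent wells and 100% = doxorubicin-treated wells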
Settings: HPDE-C7K KRASV12 cells, Alamar Blue viability, 48 h; at 10 µM; active compounds read high
The campaign covered roughly 63,000 compounds. About 1,100 (1.7%) were called active. This excerpt belongs to a sample that is enriched for actives. Measured potencies and affinities stand elsewhere.
readout.kind: cytotoxicity (%)
Give your result in % as a bare value.

Here are 10 compounds together with their reported answers.
compound	cytotoxicity / %
CCOc1ccc(C2CC(=O)NC(SCC(=O)OC)=C2C#N)cc1 (configuration not stated)	-6.5
O=C(Nc1ccc(C(F)(F)F)cc1)C1CCCN1S(=O)(=O)c1cccc2cccnc12 (configuration not stated)	16.9
CCOC(=O)CSC1=C(C#N)C(c2sccc2C)CC(=O)N1 (configuration not stated)	52
O=C(CC(c1ccco1)C1CCCCC1=O)c1ccco1 (configuration not stated)	14.2
COc1ccc(Br)cc1-c1nc(C)c(C(C)=O)n1O	9.6
O=C1CC(N2CCN(c3ccc(F)cc3)CC2)C(=O)N1Cc1cccs1 (configuration not stated)	-7.6
CCOC(=O)CSC1=C(C#N)C(c2ccc(F)cc2)C(C(C)=O)=C(C)N1 (configuration not stated)	-0.1
COc1ccc(CNC(=O)C2CC(c3ccc(F)cc3)=NO2)cc1 (configuration not stated)	1.6
COc1ccc(C2=NOC(C(=O)NCc3ccc(F)cc3)C2)cc1OC (configuration not stated)	58.9
CC(C)CC(=O)N1CCN(S(=O)(=O)c2ccc(F)cc2)CC1	0.4

Query COc1ccccc1/C=N/n1cnnc1 yields cytotoxicity of -11.3

Query COc1ccc(N2CCN(C(c3ccccc3)c3nnnn3Cc3ccc(F)cc3)CC2)cc1 (configuration not stated) yields cytotoxicity of -7.5

Query C=CCSC1=N/C(=C\c2ccc3c(c2)OCO3)C(=O)S1 yields cytotoxicity of 52.9

Query Cn1cnnc1SCc1ccc(C#N)cc1 yields cytotoxicity of 2.3

Query COc1cc(-c2nc3cnccc3n2C)cc(OC)c1OC yields cytotoxicity of -11.3

Query C=CCSC1=N/C(=C\c2cc(OC)c3c(c2)OCO3)C(=O)S1 yields cytotoxicity of 16.5

Query CCOC(=O)CSc1nnc(CNC(=O)c2ccco2)n1C yields cytotoxicity of -0.1

Query Cc1ccccc1Nc1cc2ccccc2c(=O)[nH]1 yields cytotoxicity of 73.3

====

Assay: viability loss of HPDE-C7K cells – cell-based, fluorescence, HTS, primary screen (AID 431);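 also: 0% = DMSO solvent wells and 100% = doxorubicin-treated wells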
Conditions: HPDE-C7K KRASV12 cells, Alamar Blue viability, 48 h; at 10 µM
In all, about 63,000 compounds went through this assay and about 1,100 (1.7%) were called active.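 Rule for the calls: active = compounds whose percent cytotoxicity in the single-dose primary screen, scaled between solvent and toxic-drug controls, exceeds 50; inactive = the rest.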 The full list was thinned out, with actives kept by preference. Results with a measured potency or affinity are listed apart.
// one of 1 (yes) = active, 0 (no) = inactive, no free text

As a guide, the following entries are already answered.
compound	label
CCOC(=O)Cn1nc(-c2ccc(Cl)cc2)cc1N	0 (no)
CCOC(=O)Cc1nnc2c(Nc3ccc(Cl)cc3)nc3nonc3n12	1 (yes)
COc1cc(C2C(C(=O)OC(C)C)=C(C)Nc3ncnn32)cc(OC)c1OC (configuration not stated)	0 (no)
Cc1cnc(NC(=O)COc2ccccc2)s1	0 (no)
COc1ccc2c(c1)C(=O)CC(c1ccccc1F)O2 (configuration not stated)	0 (no)
Cc1cccc(Nc2ccccc2C(=O)O)c1C	0 (no)
Cc1c(Cl)cccc1Nc1ccccc1C(=O)O	0 (no)
Cc1nnc(NC(=O)Nc2cccc(Cl)c2)s1	0 (no)
Cn1c(Cl)cnc1C1CC(=O)c2cc(Cl)ccc2O1 (configuration not stated)	1 (yes)
COc1ccc(C2C3=C(Nc4ncnn42)c2ccccc2CCC3)cc1 (configuration not stated)	0 (no)

Please indicate how the test categorized CCOC(=O)Cc1nnc2c(Nc3ccc(C)cc3)nc3nonc3n12 .
0 (no)

Please indicate how the test categorized COc1ccc2c3c(cccc13)OCC2=O .
0 (no)

====

Assay: viability loss of HPDE-C7K cells – cell-based, fluorescence, HTS, primary screen (AID 431);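 also: 0% = DMSO solvent wells and 100% = doxorubicin-treated wells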
Details: HPDE-C7K KRASV12 cells, Alamar Blue viability, 48 h; at 10 µM; active compounds read high
In all, about 63,000 compounds went through this assay and about 1,100 (1.7%) were called active. The sample as a whole holds a higher share of actives than the screen did. Potency and affinity values are given separately.
readout.kind: cytotoxicity (%)
Give your result in % as a bare value.

compound	readout.kind	unit.descriptor	numeric.value
Nc1c(Br)cc(Br)c(N2CCCC2=O)c1Br	cytotoxicity	%	0.5
CCOC(=O)c1sc2nc(-c3ccco3)c3c(c2c1N)CC(C)(C)OC3	cytotoxicity	%	57.4
Cc1occc1C(=O)Nc1cc(C(F)(F)F)ccc1Cl	cytotoxicity	%	-12.7
Cc1ccc(C(=O)CSc2nnc(CNc3ccc(C)cc3C)n2Cc2ccco2)cc1	cytotoxicity	%	30.1
COc1cc2c(C#N)c(N3CCN(c4ccccc4OC)CC3)nc(N)c2c(N)n1	cytotoxicity	%	57.2

Consider now this further compound.
Query CC(C)(C)NC(=O)c1ccc(COc2ccccc2Br)o1 yields cytotoxicity of -20.3

====

Assay: viability loss of HPDE-C7K cells – cell-based, fluorescence, HTS, primary screen (AID 431);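 also: 0% = DMSO solvent wells and 100% = doxorubicin-treated wells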
Details: HPDE-C7K KRASV12 cells, Alamar Blue viability, 48 h; at 10 µM; active compounds read high
Out of some 63,000 compounds screened, about 1,100 (1.7%) were called active. What follows is part of a selection rich in actives, with near analogues and random picks from the rest. Results with a measured potency or affinity are listed apart.
Each record here notes measured cytotoxicity.
Give your result in % as a bare value.

Here are 5 compounds together with their reported answers.
compound	unit.descriptor	cytotoxicity
CCn1cc(C(=O)NCC2CCCO2)c(=O)c2cc(S(=O)(=O)N(C)C3CCCCC3)ccc21 (stereo unspecified)	%	13.1
COc1ccc(/C(O)=C2/C(=O)C(=O)N(CCN(C)C)C2c2ccccn2)cc1OC (stereo unspecified)	%	-9.5
COc1cccc(N2CCN(Cc3nc4ccccc4c(=O)[nH]3)CC2)c1	%	4.2
COCC(=O)Nc1sc2c(c1C(=O)OC)CCCC2	%	-0.8
O=C(Nc1ccccc1C(=O)N1CCCC1)c1cccc(S(=O)(=O)N2CCCCCC2)c1	%	-4.2

Consider now this further compound.
Query COc1ccc(S(=O)(=O)n2ccnc2)c2cccnc12 yields cytotoxicity of -6.2
